- tested on: UniProt P56373
- Sequence (P56373 whole entry): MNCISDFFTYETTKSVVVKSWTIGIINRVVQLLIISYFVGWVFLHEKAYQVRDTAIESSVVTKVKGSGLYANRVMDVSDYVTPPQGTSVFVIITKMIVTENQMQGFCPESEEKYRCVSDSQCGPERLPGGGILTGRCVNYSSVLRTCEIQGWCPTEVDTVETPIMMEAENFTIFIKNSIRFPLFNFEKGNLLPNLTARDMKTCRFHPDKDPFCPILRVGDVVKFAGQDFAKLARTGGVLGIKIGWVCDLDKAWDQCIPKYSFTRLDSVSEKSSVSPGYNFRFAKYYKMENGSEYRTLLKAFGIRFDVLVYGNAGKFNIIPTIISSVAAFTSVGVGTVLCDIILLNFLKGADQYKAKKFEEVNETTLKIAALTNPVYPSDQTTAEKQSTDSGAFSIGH
- experiment notes: Intracellular calcium measurement (FLIPR, Fluo-4) of antagonist activity at human P2X3 receptors
- Assay type: cell-based
- condition details: human P2X3, FLIPR calcium assay, agonist α,β-Me-ATP; read-out: hP2X3 IC50
assay metric: IC50 (nM)

// worked examples, IC50 included
INSERT INTO measurements (compound, observed_value) VALUES
  ('Cc1ccc([C@@H](C)NC(=O)c2cc(O[C@@H]3CCOC3)cc(-c3ncc(C)s3)c2)cn1 [Example 24]', 36),
  ('CCOC(=O)N1CC[C@H](Oc2cc(C(=O)N[C@H](C)c3cnc(C(F)(F)F)nc3)cc(-c3ncc(C)s3)c2)C1 [Example 228]', 5),
  ('Cc1cnc(-c2cc(OC[C@@H]3CNC(=O)CO3)cc(C(=O)N[C@H](C)c3cnc(C(F)(F)F)nc3)c2)s1 [Example 400]', 59),
  ('Cc1cnc(-c2cc(OC3CC4(C3)CN(C(=O)OC(C)(C)C)C4)cc(C(=O)N[C@H](C)c3cnc(C(F)(F)F)nc3)c2)s1 [Example 146]', 45),
  ('Cc1cnc(-c2cc(OC[C@H]3COCCO3)cc(C(=O)N[C@H](C)c3cnc(C(F)(F)F)nc3)c2)s1 [Example 178]', 39);

P: Cc1cnc(-c2cc(OCCn3cncn3)cc(C(=O)N[C@H](C)c3ccc(C(F)(F)F)nc3)c2)s1 [Example 160]
Q: Cc1ccc([C@@H](C)NC(=O)c2cc(OC[C@@H]3CCCO3)cc(-c3ncc(C)s3)c2)nn1 [Example 59]
R: Cc1ccc(CNC(=O)c2cc(OC3CCOCC3)cc(-c3ncc(C4CCC4)s3)c2)nn1 [Example 237]
Task item: Your job: order these 3 records by IC50, ascending. Your task in answering is to list the labels in the requested order.
Reply: Q, P, R

P: Cc1cnc(-c2cc(OC[C@H]3CCOC3)cc(C(=O)NC(C)c3ncc(Cl)cc3F)c2)s1 (stereo partly drawn) [Example 65]
Q: Cc1ncc([C@@H](C)NC(=O)c2cc(OC3CCN(CC(F)F)CC3)cc(-c3ncc(C)s3)c2)cn1 [Example 309]
Task item: Pick one: P or Q . Which one has the lower reported IC50? Mark your selection by writing its label.
Reply: P
(P: 3 nM, Q: 8 nM)

P: Cc1cnc(-c2cc(OC[C@H]3CCCO3)cc(C(=O)N[C@H](C)c3cnc(C(F)(F)F)nc3)c2)s1 [Example 63]
Q: Cc1cnc(-c2cc(OCC3CC3)cc(C(=O)NC(C)c3ncc(F)cc3Cl)c2)s1 (racemic) [Example 5]
Task item: Pick one: P or Q . Which one has the lower reported IC50? Mark your selection by writing its label.
Reply: P

A: Cc1ccc(CNC(=O)c2cc(OC3COC3)cc(-c3ncc(C)s3)c2)nn1 [Example 45]
B: Cc1cnc(-c2cc(O[C@@H]3CCOC3)cc(C(=O)NCc3cnc(C(F)(F)F)nc3)c2)s1 [Example 166]
C: Cc1cnc(-c2cc(OC3COC3)cc(C(=O)NC(C)c3ncc(F)cc3Cl)c2)s1 (stereo not drawn) [Example 49]
Task item: Rank entries according to their IC50, from the largest number down. Your task in answering is to list the labels in the requested order.
Reply: A, C, B
(A: 212 nM, C: 132 nM, B: 40 nM)
